- Method description: Test on oral absorption characteristics in dogs
- Type: in vivo, beagle dogs
- Condition set: beagle, dog, plasma, po, 100 mg, Dog 3, 8 hours; oral capsule, 100 mg in terms of the free form
Property name: concentration at 8 h (ng/mL)
Quick note: give the figure in ng/mL, leave out the unit.

Provide only the value of recorded concentration at 8 h for COc1ncc(C)c(-c2ccc3c(c2)[nH]c(=O)c2cnn([C@H]4CCOC4)c23)c1C [compound (I)]
74

---

- Method description: Test on oral absorption characteristics in dogs
- Assay type: in vivo, beagle dogs
- Condition set: beagle, dog, plasma, po, 100 mg, Dog 3, 0.25 hours; oral capsule, 100 mg in terms of the free form
Property name: concentration at 0.25 h
Quote the value and follow it with the unit of measurement.

Recall and state the measured concentration at 0.25 h for COc1ncc(C)c(-c2ccc3c(c2)[nH]c(=O)c2cnn([C@H]4CCOC4)c23)c1C.O=C(O)/C=C\C(=O)O [Example 1, Monomaleate Salt] .
279 ng/mL

---

- Method description: Test on oral absorption characteristics in dogs
- Assay type: in vivo, beagle dogs
- Condition set: beagle, dog, plasma, po, 100 mg, Dog 4, 6 hours; oral capsule, 100 mg in terms of the free form
Property name: concentration at 6 h (ng/mL)
Give just the numeric value; ng/mL need not be written.

Look up concentration at 6 h of `COc1ncc(C)c(-c2ccc3c(c2)[nH]c(=O)c2cnn([C@H]4CCOC4)c23)c1C` and report it.
164

---

- Method description: Test on oral absorption characteristics in dogs
- Type: in vivo, beagle dogs
- Condition set: beagle, dog, plasma, po, 100 mg, Dog 4, 0.5 hours; oral capsule, 100 mg in terms of the free form
Property name: concentration at 0.5 h (ng/mL)
Field format: number, assumed ng/mL, no unit text.

Provide only the value of recorded concentration at 0.5 h for COc1ncc(C)c(-c2ccc3c(c2)[nH]c(=O)c2cnn([C@H]4CCOC4)c23)c1C.O=C(O)/C=C\C(=O)O [Example 1, Monomaleate Salt]
6
